These measurements were taken from paper PMC5011342.

Tested on: expanded OPCs
Experiment description: cells
Condition: Rattus norvegicus, 72 h, read-out: 1 µM (% DMSO), alamarBlue viability of expanded OPCs, compound at 1 µM, sheet All Tox data
From the text: Having established a consistent assay for measuring OL differentiation in vitro, the next step was to utilize this assay to assess the ability of a wide array of compounds to promote OL differentiation. Prior to library screening, we first established the maximum non-toxic dose of each compound in the library. […] Three days later, we assessed viability of the treated cells by measuring AlamarBlue fluorescence, a measure of cell viability (see “Methods” section). […]
Exercise: state measured viability at 1 µM for each of the compounds provided.
Give bare numbers, in %.

INSERT INTO assay_data (compound, assay_system, unit_of_measure, endpoint_result) VALUES
  ('CC(=O)O[C@H]1C[C@@H]2CC[C@@H]3[C@H](CC[C@@]4(C)[C@H]3C[C@H]([N+]3(C)CCCCC3)[C@@H]4OC(C)=O)[C@@]2(C)C[C@@H]1[N+]1(C)CCCCC1', 'expanded OPCs', '%', 83.2),
  ('NC(=O)OCCCc1ccccc1 [Phenprobamate]', 'expanded OPCs', '%', 95.1),
  ('O=C(O)Cc1ccccc1Nc1c(Cl)cccc1Cl', 'expanded OPCs', '%', 95.5),
  ('CC(C)[C@H]1CC[C@H](C(=O)N[C@H](Cc2ccccc2)C(=O)O)CC1 [Nateglinide]', 'expanded OPCs', '%', 92.4),
  ('Cc1ncc2n1-c1ccc(Cl)cc1C(c1ccccc1F)=NC2', 'expanded OPCs', '%', 99.9);

Go through the items and report each one's viability at 1 µM.
1. COc1cccc2c1C(=O)c1c(O)c3c(c(O)c1C2=O)C[C@@](O)(C(=O)CO)C[C@@H]3O[C@H]1C[C@H](N)[C@H](O)[C@H](C)O1
2. CC(=O)N1CCN(c2ccc(OCC3COC(Cn4ccnc4)(c4ccc(Cl)cc4Cl)O3)cc2)CC1 (stereo not shown)

1. 11
2. 126
